B1: tRNA (parent)
chain: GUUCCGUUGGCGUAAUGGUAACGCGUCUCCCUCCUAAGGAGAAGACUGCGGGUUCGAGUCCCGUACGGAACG

Variants of: B1
Assay: yeast fitness relative to wild type (ratio to wild type); higher = fitter; tRNA-Arg(CCU), competitive growth, 37 C, YPD
This sample holds only a part of the variants without activity.

{"SEQ": "GUUCCGAUGGCGUAAUGGUAACGUGUCUCCCUACUAAGGAGAAGACUGCGGGUUCGAGUCCCGUACGGAACG [U7A C24U C33A]", "yeast fitness": "≤ 0.5"}
{"SEQ": "GUUCCGUUGGCGUAAUGGUACCGCGGCUCCCUCCUAAGGAGAAGACUGCGGGUUCGAGUCCCGUGCGGCACG [A21C U26G A65G A69C]", "yeast fitness": "≤ 0.5"}
{"SEQ": "GUUCCGUUGGCGUUAUGGUAACGCGUCUCCCUCCCAAGGAGAAGACUGCGGGUUAGAGUACCGUACGGAACG [A14U U35C C55A C60A]", "yeast fitness": "≤ 0.5"}
{"SEQ": "GUUCCGUUGGCGUAAUGGUAACGCGUCUCCCUCCUAAGGAGAAGACUGCGGGUUCGAGUACCGUAUGCAACG [C60A C66U G68C]", "yeast fitness": "≤ 0.5"}
{"SEQ": "GUCUCGUUGGCGUAAUGGUAACGCGUCUCUCUCCUAAGGAGAAGACUGCGGGUUCGGGUCCCGUACGGAACG [U3C C4U C30U A57G]", "yeast fitness": "≤ 0.5"}
{"SEQ": "GUUCCGCUGGCGUGAUAGUAACGCGUCUCCCUCCUAAGGAGAAGACUCCGGGUUCGAGUCCCGUACGGAUCG [U7C A14G G17A G48C A70U]", "yeast fitness": "≤ 0.5"}
{"SEQ": "GUUCCGUUGACAUAAUGGUAACGCGUCUCCCUCCUAAGGAGAAGACUGCGGAUUCGAGUCCCGUAUGGAACG [G10A G12A G52A C66U]", "yeast fitness": "≤ 0.5"}
{"SEQ": "GUUCCGUUGGCGUAAUGGUAACCCGUCUCCCUCCUAGGGAGUAGACUCUGGGUUCGAGUCCCGUACGGAACG [G23C A37G A42U G48C C49U]", "yeast fitness": "≤ 0.5"}
{"SEQ": "GUUCCGUUGGCGUAAUGGUACCGCGUCUUCCUCCUAAGGAGAGGACUGCGGGUUCGAGUCCCGUAUGGAACG [A21C C29U A43G C66U]", "yeast fitness": "≤ 0.5"}
{"SEQ": "GUUCCGUUGGUGUAAUGGUUACGCGUCUCCCUCCUAAGGAGAAGACUGCGGGUUCGAGUCCCGUACGAACCG [C11U A20U G68A A70C]", "yeast fitness": 0.515}
{"SEQ": "GUUCCAUUGGAGUCAUGGCAACGCGUCUCCCACCUAAGGAGCAGACUGCGGGUUCGAGUCCCGUACGGAACG [G6A C11A A14C U19C U32A A42C]", "yeast fitness": 0.664}
{"SEQ": "GUUCCGUUGGCGUAAUGGUAUCGCGUCUCCCUCGUAAGGAGAAGACUGCGGGUUCGAGUCCCGUACGGAACG [A21U C34G]", "yeast fitness": 0.597}
{"SEQ": "GUUCCGUUGGAGUAAUGGUAACGCGUGUCCAUCCUAAGGAGAAGACUGCGGGUUCGAGUCCCGUACGAAACG [C11A C27G C31A G68A]", "yeast fitness": "≤ 0.5"}
{"SEQ": "GUUCCGUUGGCGUAAUGGCAGUGCGUCUCCCUCCUAAGGAGAAGACUGCGGGUUCGAGUCCCGUACGGAACG [U19C A21G C22U]", "yeast fitness": 0.552}

Reference for the values: the RNAGym collection of RNA variant scans (doi:10.1126/science.aae0568)
